B1: LINE1-full (parent)
chain: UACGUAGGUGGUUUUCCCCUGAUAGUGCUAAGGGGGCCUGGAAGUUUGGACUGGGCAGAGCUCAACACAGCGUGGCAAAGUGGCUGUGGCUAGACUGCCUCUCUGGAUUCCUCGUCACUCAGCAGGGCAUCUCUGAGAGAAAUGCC

variants of: B1; assay: self-cleavage, relative activity (ratio to wild type); higher = more cleavage; in vitro, sequencing; the parent is a self-cleaving ribozyme
Each record's class is read off its self-cleavage using these ranges: 0: < 0.6; 1: ≥ 0.6 and < 1; 2: ≥ 1

[
  {
    "sequence_change": "G75A A129U",
    "label": 2
  },
  {
    "sequence_change": "G41C A59G",
    "label": 0
  },
  {
    "sequence_change": "G72A A138G",
    "label": 2
  },
  {
    "sequence_change": "C61U U91C",
    "label": 0
  },
  {
    "sequence_change": "U104A U119A",
    "label": 2
  },
  {
    "sequence_change": "C76U A142C",
    "label": 1
  },
  {
    "sequence_change": "A67G U102C",
    "label": 0
  },
  {
    "sequence_change": "U9C G89C",
    "label": 0
  },
  {
    "sequence_change": "U39C A141U",
    "label": 2
  },
  {
    "sequence_change": "A43U A124G",
    "label": 1
  },
  {
    "sequence_change": "U73C",
    "label": 2
  }
]

The measured values listed here are drawn from the RNAGym collection of RNA variant scans (doi:10.7554/elife.90254).
